From: patent US20140099662A1

We begin with a simple list: items and their reported IC50 at 40 min.
protocol details: in vitro
assay setup: human, IC50 (50% inhibitory concentration, cytotoxicity)
Field format: number, assumed µg/mL, no unit text.

compound	IC50 at 40 min (µg/mL)
C=C[C@H]1C[N@@]2CC[C@H]1C[C@H]2[C@H](O)c1ccnc2ccc(OC)cc12 [Quinine, quinine]	147

Now let's try a different one.
Supply recorded IC50 at 40 min for [H]/N=C(\N/C(=N/[H])NCCCCCCNC(=N)NC(=N)Nc1ccc(Cl)cc1)Nc1ccc(Cl)cc1 [Chlorhexidine, chlorhexidine] here.
42.7

###

Listing of entries alongside the reported PIF value (Photo Irritation Facor value) = IC50 shaded / IC50 under light irradiation.
System: Balb/c 3T3 cells
protocol details: in vitro
assay setup: mouse, 40 min
Lab note: record the figure alone, no unit after it.

smiles representation	assay result
CN(C)CCCN1c2ccccc2Sc2ccc(Cl)cc21	23.7
[H]/N=C(\N/C(=N/[H])NCCCCCCNC(=N)NC(=N)Nc1ccc(Cl)cc1)Nc1ccc(Cl)cc1	1.4
Oc1c(Cl)cc(Cl)cc1Sc1cc(Cl)cc(Cl)c1O	12.4

As a next step, examine the compound that follows.
State its PIF value (Photo Irritation Facor value) = IC50 shaded / IC50 under light irradiation for this compound: C=C[C@H]1C[N@@]2CC[C@H]1C[C@H]2[C@H](O)c1ccnc2ccc(OC)cc12
128.8
